EC50 values for the compounds below.
Biological target: Peroxisome proliferator-activated receptor alpha (Homo sapiens)
Sequence (Q07869 whole entry, the tested form may be a part): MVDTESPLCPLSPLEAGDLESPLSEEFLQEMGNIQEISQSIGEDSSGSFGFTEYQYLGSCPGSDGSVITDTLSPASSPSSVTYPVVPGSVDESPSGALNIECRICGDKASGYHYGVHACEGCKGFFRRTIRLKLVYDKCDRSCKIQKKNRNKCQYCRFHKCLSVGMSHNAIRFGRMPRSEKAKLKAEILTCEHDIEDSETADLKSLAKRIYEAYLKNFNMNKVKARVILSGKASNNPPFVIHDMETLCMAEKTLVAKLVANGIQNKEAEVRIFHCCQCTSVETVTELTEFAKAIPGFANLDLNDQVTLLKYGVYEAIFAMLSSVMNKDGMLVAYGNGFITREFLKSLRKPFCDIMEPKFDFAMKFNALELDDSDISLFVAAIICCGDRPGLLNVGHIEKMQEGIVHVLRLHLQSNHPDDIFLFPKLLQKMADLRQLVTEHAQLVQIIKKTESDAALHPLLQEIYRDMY
Assay: Agonist activity at GAL4-tagged PPARalpha ligand-binding domain (unknown origin) expressed in HEK293T cells incubated for 16 to 19 hrs by beta-lactamase reporter gene assay
// return numeric value only (unit: nM, not printed)

smiles_string: CCCCCOC(=O)c1ccc(NC(=O)c2cccc(NC(=O)c3ccccc3C(=O)O)c2)cc1
measure_unit: nM
EC50: 1.1

**Query** Any idea what its EC50 is? The compound is `Cc1c(C(=O)O)cccc1-c1ccc(/C=C2/SC(=O)N(CC(=O)Nc3ccc(F)cc3)C2=O)o1`
**Result** 0.16

**Query** Any idea what its EC50 is? The compound is `CCOC(=O)C1=C(Nc2ccc(OCC)cc2)S/C(=C/c2ccc(OCC(=O)O)c(OC)c2)C1=O`
**Result** 12.1

**Query** Any idea what its EC50 is? The compound is `Cc1nc(-c2cccc(C(F)(F)F)c2)sc1CNCc1ccc(OC(C)(C)C(=O)O)cc1`
**Result** 4

----------
pEC50 values for the compounds below.
Molecular target: Peroxisome proliferator-activated receptor gamma (Homo sapiens, UniProt P37231)
Sequence (P37231 whole entry): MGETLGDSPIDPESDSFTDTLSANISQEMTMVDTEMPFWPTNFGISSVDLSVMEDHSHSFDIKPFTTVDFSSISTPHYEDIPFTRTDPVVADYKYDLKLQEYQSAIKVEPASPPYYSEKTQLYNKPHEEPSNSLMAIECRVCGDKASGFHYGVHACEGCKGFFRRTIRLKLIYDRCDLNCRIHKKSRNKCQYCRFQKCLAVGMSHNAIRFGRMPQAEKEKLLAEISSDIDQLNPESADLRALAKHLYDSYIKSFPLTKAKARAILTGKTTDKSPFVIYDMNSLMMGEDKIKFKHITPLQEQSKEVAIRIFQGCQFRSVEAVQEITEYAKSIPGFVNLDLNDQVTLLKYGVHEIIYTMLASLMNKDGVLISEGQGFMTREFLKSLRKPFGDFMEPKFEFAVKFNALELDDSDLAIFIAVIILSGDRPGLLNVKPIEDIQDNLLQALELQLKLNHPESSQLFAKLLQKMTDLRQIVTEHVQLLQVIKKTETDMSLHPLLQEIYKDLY
Experiment: Agonist activity at GAL4-tagged PPARgamma (unknown origin)
Note on units: pEC50 is unitless, being -log10 of a concentration expressed in mol/L.

// below: answered compounds
compound: Cc1nc(-c2ccc(Cl)cc2)sc1C(=O)N[C@H]1CCCN(c2cccc(C(=O)O)c2)C1
target_under_test: Peroxisome proliferator-activated receptor gamma (Homo sapiens, UniProt P37231)
pEC50: 5.18

compound: Cc1nc(-c2cccc(C(F)(F)F)c2)sc1CNCc1ccc(OC(C)(C)C(=O)O)cc1
target_under_test: Peroxisome proliferator-activated receptor gamma (Homo sapiens, UniProt P37231)
pEC50: 4.60

compound: CC[C@@H](Oc1cccc(CN(CCCOc2ccc(OC)cc2)c2nc3ccccc3o2)c1)C(=O)O [PEMAFIBRATE]
target_under_test: Peroxisome proliferator-activated receptor gamma (Homo sapiens, UniProt P37231)
pEC50: 5.77

Now consider a different compound.
**Query** Any idea what its pEC50 is? The compound is `Cc1ccc(-c2nc(C)c(C(=O)N[C@H]3CCCN(c4cccc(C(=O)O)c4)C3)s2)cc1`
**Result** 5.51
